In this section we review reported pIC50 values for a set of compounds.
- Test system: Alpha-2C adrenergic receptor (Homo sapiens, UniProt P18825)
- Sequence (P18825 whole entry): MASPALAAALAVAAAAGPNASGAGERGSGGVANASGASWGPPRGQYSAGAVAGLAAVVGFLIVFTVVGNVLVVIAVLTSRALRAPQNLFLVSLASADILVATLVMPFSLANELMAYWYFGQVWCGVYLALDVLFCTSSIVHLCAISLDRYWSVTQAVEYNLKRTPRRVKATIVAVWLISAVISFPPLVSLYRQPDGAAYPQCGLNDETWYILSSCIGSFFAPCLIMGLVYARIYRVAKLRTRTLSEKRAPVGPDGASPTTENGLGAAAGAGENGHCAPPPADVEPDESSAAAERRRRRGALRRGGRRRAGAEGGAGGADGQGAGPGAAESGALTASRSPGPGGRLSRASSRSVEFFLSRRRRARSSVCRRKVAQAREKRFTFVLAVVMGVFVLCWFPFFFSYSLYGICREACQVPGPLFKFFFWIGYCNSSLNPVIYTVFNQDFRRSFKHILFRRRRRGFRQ
As a rule, pIC50 stands for the negative log10 of the concentration, concentration in M.

NCCCCN(C[C@H]1Cc2ccccc2CN1)[C@H]1CCCc2cccnc21    4.64
NCCCCN(C[C@H]1Cc2ncccc2CN1)[C@H]1CCCc2cccnc21    4.89

Alright, here's another compound for you.
q: What value of pIC50 on Alpha-2C adrenergic receptor (Homo sapiens, UniProt P18825) does c1cnc2c(c1)CN[C@@H](CN(CCCC1CCNCC1)[C@H]1CCCc3cccnc31)C2 have?
a: 5.66

###

- Experiment description: Cmax in mouse at 3 mg/kg, po measured after 8 hrs by LC-MS/MS analysis
- Format: ADME, organism-based
- Set-up: route oral, time 8 hrs, dose 3 mg/kg
- Assay context: in vivo
Readout name: Cmax (ng/mL)
Respond numerically; units are ng/mL and should not be typed.

q: Requested field: Cmax. Item: CN(CCCCN(C[C@H]1Cc2ncccc2CN1)[C@H]1CCCc2cccnc21)C1CCC(F)(F)CC1
a: 12.8

###

- Experiment description: Metabolic stability in rat liver microsomes assessed compound remaining measured after 10 mins in presence of NADPH
- Format: ADME, Microsome
- Assay context: read-out: Stability
Readout name: remaining at 10 min (%)
The figure you give is taken to be in %; do not add the unit.

These solved cases illustrate the format of a correct answer.
c1cnc2c(c1)CN[C@@H](CN(CCCC1CCNCC1)[C@H]1CCCc3cccnc31)C2    40
NC/C=C/CN(C[C@H]1Cc2ncccc2CN1)[C@H]1CCCc2cccnc21    11
NCCCCN(C[C@@H]1Cc2cccnc2CN1)[C@H]1CCCc2cccnc21    37
c1cnc2c(c1)CN[C@@H](CN(CCCCNC1COC1)[C@H]1CCCc3cccnc31)C2    27

q: Tell me the measured remaining at 10 min of NC(=O)NC/C=C\CN(C[C@H]1Cc2ncccc2CN1)[C@H]1CCCc2cccnc21 , please.
a: 1

###

- Experiment description: Oral bioavailability in mouse at 10 mg/kg measured at 24 hrs by LC-MS/MS analysis
- Format: ADME, organism-based
- Assay context: in vivo
Readout name: bioavailability (%)
Use % as the unit, but write only the number.

q: What measured bioavailability goes with CN(CCCCN(C[C@H]1Cc2ncccc2CN1)[C@H]1CCCc2cccnc21)C1CCC(F)(F)CC1 ?
a: 21.5

Values compiled from ChEMBL document CHEMBL5046278.
